src = patent US20130203662A1

Test System: ferroportin fused to green fluorescent protein (ECR293/Fpn-GFP cells) (Mus musculus, UniProt Q9JHI9)
Sequence (Q9JHI9 whole entry, the tested form may be a part): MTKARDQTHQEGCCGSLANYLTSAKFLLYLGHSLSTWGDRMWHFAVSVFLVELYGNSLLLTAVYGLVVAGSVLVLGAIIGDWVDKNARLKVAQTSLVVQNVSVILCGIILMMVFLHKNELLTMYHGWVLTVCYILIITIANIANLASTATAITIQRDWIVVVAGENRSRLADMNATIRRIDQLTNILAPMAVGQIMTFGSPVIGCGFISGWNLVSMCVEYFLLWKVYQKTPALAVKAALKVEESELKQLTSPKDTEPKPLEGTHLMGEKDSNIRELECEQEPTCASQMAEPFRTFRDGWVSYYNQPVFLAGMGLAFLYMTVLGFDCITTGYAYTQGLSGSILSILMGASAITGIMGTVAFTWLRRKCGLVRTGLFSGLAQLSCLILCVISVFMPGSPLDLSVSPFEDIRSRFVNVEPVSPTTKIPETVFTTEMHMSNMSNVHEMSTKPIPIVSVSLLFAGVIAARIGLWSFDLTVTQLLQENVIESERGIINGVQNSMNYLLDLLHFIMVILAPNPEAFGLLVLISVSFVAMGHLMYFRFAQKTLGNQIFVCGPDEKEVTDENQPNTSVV
Procedure Details: Flow cytometry of ferroportin-GFP internalization and degradation in ECR293/Fpn-GFP cells
Assay type: cell-based
Measurement Context: concentration eliciting 50% of maximal loss of fluorescence generated by reference Hep25; 24 hours; read-out: EC50 (the source's name)
Square brackets hold non-standard residues; d marks the D form. Peptide text beside a SMILES is read from it. Bip = N[C@@H](Cc1ccc(-c2ccccc2)cc1)C(=O)O; Oic = O=C(O)[C@@H]1C[C@@H]2CCCC[C@@H]2N1; Dip = N[C@H](C(=O)O)C(c1ccccc1)c1ccccc1; 1Nal = N[C@@H](Cc1cccc2ccccc12)C(=O)O; β3hF = N[C@H](CC(=O)O)Cc1ccccc1; β3hP = O=C(O)C[C@@H]1CCCN1
Measurement Type: DC50 (nM)

Compound	Result Value
CC[C@H](C)[C@H](NC(=O)[C@H](CS)NC(=O)[C@@H](NC(=O)[C@@H]1CCCN1C(=O)[C@H](Cc1ccccc1)NC(=O)[C@H](Cc1c[nH]cn1)NC(=O)[C@@H](NC(=O)[C@@H](N)CC(=O)O)[C@@H](C)O)[C@@H](C)CC)C(=O)N[C@@H](Cc1ccccc1)C(=O)N1CCC[C@@H]1C(=O)N1CCC[C@H]1C(=O)N[C@@H](CCCCN)C(N)=O	100
CC[C@H](C)[C@H](NC(=O)[C@@H]1CCCN1C(=O)[C@H](Cc1ccccc1)NC(=O)[C@H](Cc1c[nH]cn1)NC(=O)[C@@H](NC(=O)[C@@H](N)CC(=O)O)[C@@H](C)O)C(=O)N[C@@H](C(=O)N[C@H](C(=O)N[C@@H](Cc1ccccc1)C(N)=O)[C@@H](C)CC)C(C)(C)S	3000
CC[C@H](C)[C@H](NC(=O)[C@H](CCS)NC(=O)[C@@H](NC(=O)[C@@H]1CCCN1C(=O)[C@H](Cc1ccccc1)NC(=O)[C@H](Cc1c[nH]cn1)NC(=O)[C@@H](NC(=O)[C@@H](N)CC(=O)O)[C@@H](C)O)[C@@H](C)CC)C(=O)N[C@@H](Cc1ccccc1)C(N)=O	900
CC[C@H](C)[C@H](NC(=O)[C@H](CS)NC(=O)[C@@H](NC(=O)[C@@H]1CCCN1C(=O)[C@H](Cc1ccccc1)NC(=O)[C@H](Cc1c[nH]cn1)NC(=O)[C@@H](NC(=O)[C@@H](N)CC(=O)O)[C@@H](C)O)[C@@H](C)CC)C(=O)N[C@@H](Cc1ccc(-c2ccccc2)cc1)C(N)=O [F9Bip] (H-DTHFPICI[Bip]-NH2; N-terminus assumed)	150
CC[C@H](C)[C@H](NC(=O)[C@H](CS)NC(=O)[C@@H](NC(=O)[C@@H]1CCCN1C(=O)[C@H](Cc1ccccc1)NC(=O)[C@H](Cc1c[nH]cn1)NC(=O)[C@@H](NC(=O)[C@@H](N)CC(=O)O)[C@@H](C)O)[C@@H](C)CC)C(=O)N[C@@H](Cc1cccc2ccccc12)C(N)=O [F91Nal] (H-DTHFPICI[1Nal]-NH2; N-terminus assumed)	200
CC[C@H](C)[C@H](NC(=O)[C@H](CS)NC(=O)[C@@H](NC(=O)[C@@H]1CCCN1C(=O)[C@H](Cc1cccc2ccccc12)NC(=O)[C@H](Cc1c[nH]cn1)NC(=O)[C@@H](NC(=O)[C@@H](N)CC(=O)O)[C@@H](C)O)[C@@H](C)CC)C(=O)N[C@@H](Cc1ccccc1)C(N)=O [F4 1Nal] (H-DTH[1Nal]PICIF-NH2; N-terminus assumed)	110
CC[C@@H](C)[C@@H](NC(=O)[C@H](N)Cc1ccccc1)C(=O)N[C@H](CS)C(=O)N[C@@H](C(=O)N1CCC[C@@H]1C(=O)N[C@H](Cc1ccccc1)C(=O)N[C@H](Cc1c[nH]cn1)C(N)=O)[C@H](C)CC [riHep7ΔDT] (H-[dF][dI][dC][dI][dP][dF][dH]-NH2; N-terminus assumed)	150
CC[C@H](C)[C@H](NC(=O)[C@H](CS)NC(=O)[C@@H](NC(=O)[C@@H]1CCCN1C(=O)C[C@H](Cc1ccccc1)NC(=O)[C@H](Cc1c[nH]cn1)NC(=O)[C@@H](NC(=O)[C@@H](N)CC(=O)O)[C@@H](C)O)[C@@H](C)CC)C(=O)N[C@@H](Cc1ccccc1)C(N)=O	700
CC[C@H](C)[C@H](NC(=O)[C@H](CS)NC(=O)[C@@H](NC(=O)[C@@H]1CCCN1C(=O)[C@H](Cc1ccccc1)NC(=O)[C@H](Cc1c[nH]cn1)NC(=O)[C@@H](NC(=O)[C@@H](N)CC(=O)O)[C@@H](C)O)[C@@H](C)CC)C(=O)N[C@H](CC(=O)N1CCC[C@@H]1C(=O)N1CCC[C@H]1CC(=O)N[C@@H](CCCCN)C(N)=O)Cc1ccccc1 [Pr21] (H-DTHFPICI[β3hF][dP][β3hP]K-NH2)	500
CC[C@H](C)[C@H](NC(=O)[C@H](CS)NC(=O)[C@@H](NC(=O)[C@@H]1CCCN1C(=O)[C@H](Cc1ccccc1)NC(=O)[C@H](Cc1c[nH]cn1)NC(=O)[C@@H](NC(=O)[C@@H](N)CC(=O)O)[C@@H](C)O)[C@@H](C)CC)C(=O)N[C@H](C(N)=O)C(c1ccccc1)c1ccccc1 [F9Dpa] (H-DTHFPICI[Dip]-NH2)	70
CC[C@H](C)[C@H](NC(=O)[C@H](CS)NC(=O)[C@@H](NC(=O)[C@@H]1C[C@@H]2CCCC[C@@H]2N1C(=O)[C@@H](NC(=O)[C@H](Cc1c[nH]cn1)NC(=O)[C@@H](NC(=O)[C@@H](N)CC(=O)O)[C@@H](C)O)C(c1ccccc1)c1ccccc1)[C@@H](C)CC)C(=O)N[C@@H](Cc1ccccc1)C(N)=O [Pr44] (H-DTH[Dip][Oic]ICIF-NH2; N-terminus assumed)	30
